- assayedTarget: SUMO E1 (Homo sapiens, UniProt Q9UBT2)
- Sequence (Q9UBT2 whole entry): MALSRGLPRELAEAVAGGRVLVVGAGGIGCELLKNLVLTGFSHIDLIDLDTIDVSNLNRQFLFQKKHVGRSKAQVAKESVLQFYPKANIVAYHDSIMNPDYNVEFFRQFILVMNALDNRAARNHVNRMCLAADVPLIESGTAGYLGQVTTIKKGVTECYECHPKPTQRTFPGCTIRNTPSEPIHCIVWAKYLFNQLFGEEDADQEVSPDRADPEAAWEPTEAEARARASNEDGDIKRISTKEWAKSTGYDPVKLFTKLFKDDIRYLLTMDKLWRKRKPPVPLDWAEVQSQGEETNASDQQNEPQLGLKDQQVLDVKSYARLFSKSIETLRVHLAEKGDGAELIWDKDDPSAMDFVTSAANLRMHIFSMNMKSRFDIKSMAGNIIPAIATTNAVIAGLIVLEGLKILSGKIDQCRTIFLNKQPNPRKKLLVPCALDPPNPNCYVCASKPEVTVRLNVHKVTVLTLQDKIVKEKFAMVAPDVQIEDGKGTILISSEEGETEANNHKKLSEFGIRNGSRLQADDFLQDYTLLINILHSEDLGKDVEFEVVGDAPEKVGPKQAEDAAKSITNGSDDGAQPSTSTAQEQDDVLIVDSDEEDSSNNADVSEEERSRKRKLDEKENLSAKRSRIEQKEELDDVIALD
- Sequence (Q9UBE0 whole entry partner): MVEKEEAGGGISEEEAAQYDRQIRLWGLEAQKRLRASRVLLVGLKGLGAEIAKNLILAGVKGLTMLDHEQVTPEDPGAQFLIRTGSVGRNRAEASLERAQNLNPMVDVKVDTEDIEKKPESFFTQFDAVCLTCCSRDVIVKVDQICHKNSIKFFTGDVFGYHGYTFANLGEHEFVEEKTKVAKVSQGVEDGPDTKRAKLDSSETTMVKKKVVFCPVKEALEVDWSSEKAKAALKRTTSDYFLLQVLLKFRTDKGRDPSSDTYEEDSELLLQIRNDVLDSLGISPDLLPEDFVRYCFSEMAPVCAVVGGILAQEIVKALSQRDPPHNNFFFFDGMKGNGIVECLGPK
- assayOverview: SUMO E1 inhibition: UBC9-SUMO1 conjugation by SDS gel electrophoresis
- Type: biochemical
- conditionInfo: 27 uM compound, 30 min preincubation; read-out: SUMO E1 percent inhibition of adduct formation
readoutName: inhibition at 27 µM

inhibition at 27 µM lookup needed for Cc1ccccc1[C@H]1CN(C(=O)c2cccnc2Cl)Cc2sc(Cl)cc21 , thanks.
< 1%

inhibition at 27 µM lookup needed for C=CC(=O)N1Cc2sc(Cl)cc2[C@@H](c2ccccc2OC)C1 , thanks.
30%

inhibition at 27 µM lookup needed for C=CC(=O)N1Cc2sc(Cl)cc2[C@@H](c2ccccc2C)[C@H]1C , thanks.
95%

inhibition at 27 µM lookup needed for C=CC(=O)N1Cc2sc(-c3ccccc3)cc2[C@@H](c2ccccc2)C1 , thanks.
< 1%

inhibition at 27 µM lookup needed for C=C(C)C(=O)N1Cc2sc(Cl)cc2[C@@H](c2ccccc2C)C1 , thanks.
< 1%

inhibition at 27 µM lookup needed for C=CC(=O)N1CC[C@H](c2ccccc2)c2cc(Cl)sc2C1 , thanks.
< 1%

inhibition at 27 µM lookup needed for Cc1ccccc1[C@H]1CN(C(=O)/C=C/C(F)(F)c2ccccn2)Cc2sc(Cl)cc21 , thanks.
< 1%

inhibition at 27 µM lookup needed for Cc1ccccc1[C@H]1CN(C(=O)[C@@H]2CO2)Cc2sc(Cl)cc21 , thanks.
< 1%

inhibition at 27 µM lookup needed for C=CC(=O)N1Cc2sc(CCC)cc2[C@@H](c2ccccc2C)C1 , thanks.
30%

inhibition at 27 µM lookup needed for Cc1ccccc1[C@H]1CN(C(=O)/C=C/c2ccccn2)Cc2sc(Cl)cc21 , thanks.
< 1%

inhibition at 27 µM lookup needed for C=CC(=O)N1Cc2sc(Cl)cc2[C@@H](c2ccccc2CC)C1 , thanks.
95%

// provenance: patent US12398151B2
